# Test system: parasites (ring stage, in human red blood cell culture)
# method description: Parasite LDH growth assay (antiparasite potency, Parasite Assay)
# Format: cell-based, Plasmodium falciparum
# study conditions: Plasmodium falciparum, Erythrocyte, 72 h, 0.7% rings, 2% haematocrit, 72 hours at 37° C., LDH readout of parasite growth
This section presents compounds with their documented EC50 values.
property label: EC50

>>> print(df.to_string())
                                   compound                               test_target  recorded_result
0  CCC1(CC)CC(=O)N([C@H]2CCS(=O)(=O)c3ccc(C(=O)N[C@@H]4c5ccccc5C[C@]4(C)O)cc32)C(=N)N1 [Example 263]  parasites (ring stage, in human red blood cell culture)          74.8 nM
1  CC1(C)CC(=O)N([C@H]2c3cc(C(=O)N[C@@H]4c5ccccc5OC(C)(C)[C@H]4O)ccc3CC2(C)C)C(=N)N1 [Example 162]  parasites (ring stage, in human red blood cell culture)           7.5 nM
2  CC[C@]1(C)CC(=O)N([C@@H]2C[C@@H](C)Oc3ccc(C(=O)N[C@@H]4c5ccccc5C[C@@]4(C)O)cc32)C(=N)N1 [Example 129]  parasites (ring stage, in human red blood cell culture)           3.5 nM
